Assayed Target: EPHB1 (UniProt P54762)
Sequence (P54762 whole entry, looked up): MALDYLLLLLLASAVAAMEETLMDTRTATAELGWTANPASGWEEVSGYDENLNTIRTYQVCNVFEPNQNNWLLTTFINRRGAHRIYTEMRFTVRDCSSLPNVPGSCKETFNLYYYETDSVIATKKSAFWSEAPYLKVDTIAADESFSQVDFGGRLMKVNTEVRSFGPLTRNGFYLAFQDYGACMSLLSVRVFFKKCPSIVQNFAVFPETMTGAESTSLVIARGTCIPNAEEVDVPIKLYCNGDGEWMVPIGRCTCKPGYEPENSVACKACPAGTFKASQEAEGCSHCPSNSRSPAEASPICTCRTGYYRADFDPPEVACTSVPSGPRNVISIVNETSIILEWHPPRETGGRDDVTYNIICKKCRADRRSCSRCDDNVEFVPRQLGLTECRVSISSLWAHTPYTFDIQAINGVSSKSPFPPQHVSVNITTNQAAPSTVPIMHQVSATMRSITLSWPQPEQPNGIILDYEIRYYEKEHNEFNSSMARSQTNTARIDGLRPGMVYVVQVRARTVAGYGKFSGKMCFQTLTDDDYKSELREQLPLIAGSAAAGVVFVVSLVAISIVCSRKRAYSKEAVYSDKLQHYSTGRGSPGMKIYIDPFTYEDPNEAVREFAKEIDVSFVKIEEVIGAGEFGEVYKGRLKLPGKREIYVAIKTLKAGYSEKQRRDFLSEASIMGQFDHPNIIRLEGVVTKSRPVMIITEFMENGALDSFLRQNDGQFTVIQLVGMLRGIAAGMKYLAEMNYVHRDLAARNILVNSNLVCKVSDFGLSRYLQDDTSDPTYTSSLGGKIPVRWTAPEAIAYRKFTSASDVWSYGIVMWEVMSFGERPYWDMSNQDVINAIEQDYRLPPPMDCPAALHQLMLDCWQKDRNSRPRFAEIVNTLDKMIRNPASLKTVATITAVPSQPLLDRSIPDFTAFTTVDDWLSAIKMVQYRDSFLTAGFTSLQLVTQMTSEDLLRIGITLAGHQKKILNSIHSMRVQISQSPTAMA
Assay Details: phosphorylation enrichment, bacterial display (enrichment ratio); higher = better substrate or ligand; peptides without Tyr show the background;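 further: 11-residue human phosphosite peptides and single-mutation variants displayed on the E. coli surface, counted by deep sequencing, each peptide's frequency after selection divided by its frequency in the unselected input library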;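 further: frequency after pTyr selection over input frequency; kinase dosed for 20-30% of maximal phosphorylation in three min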
Decision: phosphorylation enrichment compared against 0.5; not below it gives Yes, below it gives No.

Sequence: TWQSMYGCDVG [HLA-B_Y123_L119W]
Qualitative Label: Yes

Sequence: DPHECYAKVFN [ALB_Y394_D399N]
Qualitative Label: Yes

Sequence: FRQNGYIPGSN [PCDHGA1_Y895_V894G_YF]
Qualitative Label: No

Sequence: NIISFYLSRDP [CTSD_Y232_F229I]
Qualitative Label: Yes

Sequence: NNKKDYFDMFE [SLC26A3_Y526_K521N_YF]
Qualitative Label: Yes
